assay: PCB concentrations in plasma of HELPcB participants (2010); assay type: in vivo, human; conditions: human, plasma, other: occupational exposure, HELPcB participant eight, sample of 2010
So I've got a bunch of compounds here, and I need their concentration at 2010 calendar year values.
Numbers only, in ng/mL.

Value sought for every listed compound: concentration at 2010 calendar year.
1. Clc1ccc(-c2ccc(Cl)cc2Cl)cc1
2. Clc1ccc(Cl)c(-c2cc(Cl)ccc2Cl)c1
3. Clc1cc(Cl)c(-c2cc(Cl)c(Cl)c(Cl)c2Cl)cc1Cl
4. Clc1ccc(Cl)c(-c2cc(Cl)c(Cl)cc2Cl)c1

Out:
1. 0.1
2. 0.005
3. 0.377
4. 0.005

----------
So I've got a bunch of molecules here, and I need their concentration at 2010 calendar year values.
experiment: PCB concentrations in plasma of HELPcB participants (2010); type: in vivo, human; details: human, plasma, other: occupational exposure, HELPcB participant AE, sample of 2010
Numbers only, in ng/mL.

Examples with their reported concentration at 2010 calendar year follow.
# Test smiles, Value measured
data = [
    ("Clc1ccc(Cl)c(-c2cc(Cl)ccc2Cl)c1", 0.005),
    ("Clc1ccc(-c2ccc(Cl)cc2Cl)cc1", 1.48),
    ("Clc1ccc(Cl)c(-c2cc(Cl)c(Cl)cc2Cl)c1", 0.005),
]

Pending molecule:
In: Respond only with concentration at 2010 calendar year recorded for Clc1cc(Cl)c(-c2cc(Cl)c(Cl)c(Cl)c2Cl)cc1Cl
Out: 1.28

----------
So I've got a bunch of compounds here, and I need their Quantification of metabolites generated from PCB28, 52, and 101 values.
biological target: CYP2A6 (Homo sapiens); test: Metabolism in transgenic HEK293 cells expressing CYP2A6; assay type: in vitro ADME; set-up: V5-His (vector-encoded) (C); expressed in transfected cells; details: CYP2A6 Clone B7; 20 µM parent PCB, 24 h, supernatant
Sequence (P11509 whole entry): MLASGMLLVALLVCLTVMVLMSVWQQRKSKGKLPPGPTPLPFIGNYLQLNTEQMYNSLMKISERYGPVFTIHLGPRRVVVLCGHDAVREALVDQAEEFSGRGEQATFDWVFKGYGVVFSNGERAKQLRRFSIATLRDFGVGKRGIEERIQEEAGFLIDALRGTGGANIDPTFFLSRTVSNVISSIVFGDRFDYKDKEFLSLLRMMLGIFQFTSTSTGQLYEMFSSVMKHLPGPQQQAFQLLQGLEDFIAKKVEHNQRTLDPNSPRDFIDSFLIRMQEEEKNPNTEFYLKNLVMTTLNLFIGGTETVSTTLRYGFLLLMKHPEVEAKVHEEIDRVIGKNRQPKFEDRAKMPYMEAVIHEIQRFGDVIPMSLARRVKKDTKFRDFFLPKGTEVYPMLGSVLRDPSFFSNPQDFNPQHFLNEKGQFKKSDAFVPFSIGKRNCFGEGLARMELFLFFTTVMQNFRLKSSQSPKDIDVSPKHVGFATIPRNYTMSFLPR

# Test smiles, Measured target, Value measured
rows = [
    ("Oc1cc(Cl)cc(-c2cc(Cl)c(Cl)cc2Cl)c1Cl", "CYP2A6 (Homo sapiens)", "39,4 nM"),
]

Value sought for every listed compound: Quantification of metabolites generated from PCB28, 52, and 101.
1. Oc1cc(Cl)c(-c2cc(Cl)ccc2Cl)cc1Cl
2. Oc1cc(Cl)c(-c2cc(Cl)c(Cl)cc2Cl)cc1Cl

Out:
319,55 nM
441,30 nM

Value sought for every listed compound: Quantification of metabolites generated from PCB28, 52, and 101.
1. Oc1cc(Cl)cc(-c2cc(Cl)ccc2Cl)c1Cl
2. Oc1cc(-c2ccc(Cl)cc2)c(Cl)cc1Cl

Out:
1: 0,87 nM; 2: 1,84 nM

----------
So I've got a bunch of compounds here, and I need their concentration at 2010 calendar year of sampling values.
experiment: PCB concentrations in plasma of HELPcB participants (2010); assay type: in vivo, human; settings: human, plasma, other: occupational exposure, HELPcB participant two, sample of 2010

Examples with their reported concentration at 2010 calendar year of sampling follow.
# Test smiles, Value measured
records = [
    ("Clc1ccc(Cl)c(-c2cc(Cl)c(Cl)cc2Cl)c1", "0.005 ng/mL"),
    ("Clc1cc(Cl)c(-c2cc(Cl)c(Cl)c(Cl)c2Cl)cc1Cl", "0.612 ng/mL"),
    ("Clc1ccc(-c2ccc(Cl)cc2Cl)cc1", "0.019 ng/mL"),
]

Pending compound:
In: Respond only with concentration at 2010 calendar year of sampling recorded for Clc1ccc(Cl)c(-c2cc(Cl)ccc2Cl)c1
Out: 0.005 ng/mL

----------
molecular target: UniProt P08684; test: Metabolism in transgenic HEK293 cells expressing CYP3A4; conditions: CYP3A4 Clone D10; 20 µM parent PCB, 24 h, supernatant
Sequence (P08684 whole entry): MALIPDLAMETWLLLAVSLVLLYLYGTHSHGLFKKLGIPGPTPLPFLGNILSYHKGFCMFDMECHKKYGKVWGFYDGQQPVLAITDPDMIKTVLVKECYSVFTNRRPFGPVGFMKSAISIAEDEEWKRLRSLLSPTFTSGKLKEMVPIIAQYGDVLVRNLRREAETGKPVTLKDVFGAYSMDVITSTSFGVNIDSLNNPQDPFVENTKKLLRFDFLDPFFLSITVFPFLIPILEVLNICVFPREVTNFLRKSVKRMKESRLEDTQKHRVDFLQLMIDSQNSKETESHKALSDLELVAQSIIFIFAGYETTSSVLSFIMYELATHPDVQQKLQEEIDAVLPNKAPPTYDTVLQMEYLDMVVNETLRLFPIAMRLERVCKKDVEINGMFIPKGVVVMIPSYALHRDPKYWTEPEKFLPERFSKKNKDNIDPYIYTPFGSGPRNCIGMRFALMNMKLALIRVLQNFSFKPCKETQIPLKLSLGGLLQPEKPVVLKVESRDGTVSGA
Measure: Quantification of metabolites generated from PCB28, 52, and 101

Examples with their reported Quantification of metabolites generated from PCB28, 52, and 101 follow.
# Compound, Value measured
rows = [
    ("Oc1cc(Cl)c(-c2cc(Cl)c(Cl)cc2Cl)cc1Cl [4´-OHCB101, 2,2′,4,5,5′-Pentachloro-4′-biphenylol]", "<LOQ"),
    ("Oc1cc(Cl)cc(-c2cc(Cl)c(Cl)cc2Cl)c1Cl [3´-OHCB101, 2,2′,4,5,5′-pentachloro-3′-biphenylol]", "<LOQ"),
    ("Oc1cc(Cl)c(-c2ccc(Cl)cc2)cc1Cl [4-OHCB31, 2,4′,5-trichloro-4-biphenylol]", "<LOQ"),
    ("Oc1cc(Cl)cc(-c2cc(Cl)ccc2Cl)c1Cl [3-OHCB52, 2,2′,5,5′-tetrachloro-3-biphenylol]", "0,66 nM"),
    ("Oc1cc(Cl)c(-c2cc(Cl)ccc2Cl)cc1Cl [4-OHCB52, 2,2′,5,5′-tetrachloro-4-biphenylol]", "0,72 nM"),
]

Pending compound:
In: State Quantification of metabolites generated from PCB28, 52, and 101 (UniProt P08684) of Oc1cc(-c2ccc(Cl)cc2)c(Cl)cc1Cl [5-OHCB28, 2,4,4′-trichloro-5-biphenylol] .
Out: <LOQ

----------
assay: PCB concentrations in plasma of HELPcB participants (2010); format: in vivo, human; details: human, plasma, other: occupational exposure, HELPcB participant three, sample of 2010
So I've got a bunch of compounds here, and I need their concentration at 2010 calendar year values.
Answers are plain numbers, in ng/mL.

Examples with their reported concentration at 2010 calendar year follow.
# Test smiles, Value measured
rows = [
    ("Clc1ccc(-c2ccc(Cl)cc2Cl)cc1", 0.999),
    ("Clc1ccc(Cl)c(-c2cc(Cl)c(Cl)cc2Cl)c1", 0.078),
    ("Clc1ccc(Cl)c(-c2cc(Cl)ccc2Cl)c1", 0.04),
]

Pending compound:
In: Respond only with concentration at 2010 calendar year recorded for Clc1cc(Cl)c(-c2cc(Cl)c(Cl)c(Cl)c2Cl)cc1Cl
Out: 0.95

----------
So I've got a bunch of compounds here, and I need their concentration at 2010 calendar year values.
assay: PCB concentrations in plasma of HELPcB participants (2010); assay type: in vivo, human; conditions: human, plasma, other: occupational exposure, HELPcB participant five, sample of 2010

# Test smiles, concentration at 2010 calendar year
data = [
    ("Clc1cc(Cl)c(-c2cc(Cl)c(Cl)c(Cl)c2Cl)cc1Cl", "0.951 ng/mL"),
    ("Clc1ccc(Cl)c(-c2cc(Cl)ccc2Cl)c1", "0.031 ng/mL"),
    ("Clc1ccc(-c2ccc(Cl)cc2Cl)cc1", "0.21 ng/mL"),
]

Pending compound:
In: Respond only with concentration at 2010 calendar year recorded for Clc1ccc(Cl)c(-c2cc(Cl)c(Cl)cc2Cl)c1
Out: 0.111 ng/mL

----------
Target: CYP2C8 (Homo sapiens)
Construct: V5-His (vector-encoded) (C); expressed in transfected cells
Sequence (P10632 1-490): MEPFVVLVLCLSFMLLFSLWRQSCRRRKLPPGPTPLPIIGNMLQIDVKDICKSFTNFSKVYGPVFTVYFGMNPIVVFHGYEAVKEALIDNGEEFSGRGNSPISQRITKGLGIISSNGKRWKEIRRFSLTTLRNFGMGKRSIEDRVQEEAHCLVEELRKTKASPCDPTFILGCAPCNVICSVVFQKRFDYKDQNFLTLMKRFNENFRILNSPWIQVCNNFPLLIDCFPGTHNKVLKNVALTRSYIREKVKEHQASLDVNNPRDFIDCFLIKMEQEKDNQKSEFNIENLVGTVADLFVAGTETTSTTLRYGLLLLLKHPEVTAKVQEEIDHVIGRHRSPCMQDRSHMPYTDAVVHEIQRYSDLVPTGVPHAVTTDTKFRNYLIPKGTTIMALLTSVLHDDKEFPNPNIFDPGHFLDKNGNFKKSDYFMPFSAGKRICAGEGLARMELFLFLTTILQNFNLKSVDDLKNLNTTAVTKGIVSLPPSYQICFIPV
Experiment: Metabolism in transgenic HEK293 cells expressing CYP2C8
Type: in vitro ADME
Settings: CYP2C8 Clone D8; 20 µM parent PCB, 24 h, supernatant
Measure: Quantification of metabolites generated from PCB28, 52, and 101

# Test smiles, Value measured
rows = [
    ("Oc1cc(Cl)c(-c2ccc(Cl)cc2)cc1Cl", "<LOQ"),
    ("Oc1cc(Cl)cc(-c2cc(Cl)ccc2Cl)c1Cl", "0,09 nM"),
    ("Oc1cc(-c2ccc(Cl)cc2)c(Cl)cc1Cl", "<LOQ"),
    ("Oc1cc(Cl)c(-c2cc(Cl)ccc2Cl)cc1Cl", "0,1 nM"),
]

----------
biological target: CYP2E1 (Homo sapiens); assay: Metabolism in transgenic HEK293 cells expressing CYP2E1; details: CYP2E1 Clone B4; 20 µM parent PCB, 24 h, supernatant
Sequence (P05181 whole entry): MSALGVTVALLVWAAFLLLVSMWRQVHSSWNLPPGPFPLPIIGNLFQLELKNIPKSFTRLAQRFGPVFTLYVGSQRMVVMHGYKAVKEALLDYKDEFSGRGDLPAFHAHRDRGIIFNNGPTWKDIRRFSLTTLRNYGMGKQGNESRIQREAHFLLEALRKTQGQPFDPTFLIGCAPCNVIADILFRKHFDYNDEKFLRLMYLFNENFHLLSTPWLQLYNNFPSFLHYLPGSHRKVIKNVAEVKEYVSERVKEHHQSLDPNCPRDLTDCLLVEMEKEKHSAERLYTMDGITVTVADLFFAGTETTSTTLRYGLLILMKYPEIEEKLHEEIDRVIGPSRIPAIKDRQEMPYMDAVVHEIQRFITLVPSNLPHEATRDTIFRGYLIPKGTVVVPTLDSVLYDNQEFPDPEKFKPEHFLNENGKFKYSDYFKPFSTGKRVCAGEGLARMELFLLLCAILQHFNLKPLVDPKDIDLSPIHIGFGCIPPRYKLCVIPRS
Measure: Quantification of metabolites generated from PCB28, 52, and 101

Examples with their reported Quantification of metabolites generated from PCB28, 52, and 101 follow.
# Test smiles, Value measured
data = [
    ("Oc1cc(Cl)cc(-c2cc(Cl)c(Cl)cc2Cl)c1Cl", "<LOQ"),
    ("Oc1cc(Cl)cc(-c2cc(Cl)ccc2Cl)c1Cl", "0,38 nM"),
    ("Oc1cc(Cl)c(-c2cc(Cl)c(Cl)cc2Cl)cc1Cl", "3,84 nM"),
    ("Oc1cc(Cl)c(-c2ccc(Cl)cc2)cc1Cl", "<LOQ"),
]

Value sought for every listed compound: Quantification of metabolites generated from PCB28, 52, and 101.
1. Oc1cc(Cl)c(-c2cc(Cl)ccc2Cl)cc1Cl
2. Oc1cc(-c2ccc(Cl)cc2)c(Cl)cc1Cl

Out:
5,55 nM
<LOQ

Source of measurements: paper PMC11489226
